# EXPERIMENTAL_DETAILS: qHTS Assay for Spectroscopic Profiling in 4-MU Spectral Region
# PROTOCOL_CONDITIONS: compound autofluorescence, 340/450 nm, 4-MU equivalents; stronger effect = higher value
Out of some 59,000 compounds screened, about 6,200 (11%) were called active. About 9% were inconclusive and are not listed. Shown is part of a subset that was picked to be rich in actives.
READOUT_TYPE: max dye-equivalent concentration

Look over these answered cases.
# COMPOUND, max dye-equivalent concentration
records = [
    ("O=C(O)C1CCN(S(=O)(=O)N2CCOCC2)CC1", "inactive"),
    ("CCn1c(SCC(=O)Nc2cc(C)ccc2C)nnc1-c1cnccn1", "inactive"),
    ("CCOc1cccc(-n2nnnc2-c2ccc(OC)cc2)c1", "inactive"),
    ("CCN(CC)CCN1C(=O)C(=O)/C(=C(/O)c2ccc(OC)c(OC)c2)C1c1ccccn1 (stereo unspecified)", "33 nM (active)"),
]

(Q) Would you kindly share the measured max dye-equivalent concentration for CC1(C)NC(=O)N(CCOc2cccc(Oc3ccccc3)c2)C1=O ?
(A) inactive

(Q) Would you kindly share the measured max dye-equivalent concentration for N#CC(C(=O)c1ccc(S(=O)(=O)N2CCCCCC2)cc1)c1nc2ccccc2[nH]1 (stereo unspecified) ?
(A) 24 nM (active)

(Q) Would you kindly share the measured max dye-equivalent concentration for O=c1cc(CSc2ccc(Cl)cc2)nc(N2CCOCC2)[nH]1 ?
(A) inactive

(Q) Would you kindly share the measured max dye-equivalent concentration for CC(Sc1nncn1C)C(=O)Nc1ccccc1-c1ccccc1 (stereo unspecified) ?
(A) inactive

(Q) Would you kindly share the measured max dye-equivalent concentration for Cc1nc2cnc(N3CCN(C)CC3)nc2n(CCC#N)c1=O ?
(A) inactive

(Q) Would you kindly share the measured max dye-equivalent concentration for CCOc1cc(-c2noc(CCC(=O)N3CCOCC3)n2)ccc1OC ?
(A) inactive

(Q) Would you kindly share the measured max dye-equivalent concentration for C[C@@H](N)[C@@H](C)Cc1ccccc1 ?
(A) inactive

(Q) Would you kindly share the measured max dye-equivalent concentration for COc1ccccc1N1CCN(C(=O)c2ccc(S(=O)(=O)N3CCCCC3)cc2)CC1 ?
(A) inactive

(Q) Would you kindly share the measured max dye-equivalent concentration for NC(=O)CSc1c[nH]c2ccccc12 ?
(A) inactive

(Q) Would you kindly share the measured max dye-equivalent concentration for COc1ccc(C2=CC(c3cccc(OC)c3)n3nnnc3N2)cc1 (stereo unspecified) ?
(A) 13 nM (active)

(Q) Would you kindly share the measured max dye-equivalent concentration for O=C(NCCSc1ccccc1)c1ccco1 ?
(A) inactive

(Q) Would you kindly share the measured max dye-equivalent concentration for O=S(=O)(Nc1ccccc1N1CCOCC1)c1ccc(Cl)s1 ?
(A) inactive

(Q) Would you kindly share the measured max dye-equivalent concentration for CCCOP(=O)(c1ccc(N(C)C)cc1)C(O)c1cc(OC)c(OC)c(OC)c1 (stereo unspecified) ?
(A) inactive

(Q) Would you kindly share the measured max dye-equivalent concentration for COc1ccc(-c2ccc(-c3noc(-c4ccncc4)n3)c(OC)n2)cc1 ?
(A) 17 nM (active)

(Q) Would you kindly share the measured max dye-equivalent concentration for Cc1nc2cnc(Nc3ccccc3)nc2n(C[C@H]2CCCO2)c1=O ?
(A) inactive

(Q) Would you kindly share the measured max dye-equivalent concentration for COc1ccc(-c2noc(CN(C)S(=O)(=O)c3ccc(C)cc3)n2)cc1 ?
(A) inactive

(Q) Would you kindly share the measured max dye-equivalent concentration for COc1ccc(/C(O)=C2/C(=O)C(=O)N(CCCN(C)C)C2c2ccccc2)cc1OC (stereo unspecified) ?
(A) inactive

(Q) Would you kindly share the measured max dye-equivalent concentration for COc1ccc(NC(=O)c2c(SC)nsc2SC)cc1 ?
(A) inactive
